Numbers sourced from patent US6566363B2.

- TARGET SYSTEM: CDK2/cyclin A (Homo sapiens, UniProt P24941)
- Construct: cyclin A: E. coli, then limited proteolysis
- PROCEDURE DETAILS: Inhibition of CDK2/Cyclin A retinoblastoma kinase activity
- CONDITION LABEL: apparent Ki; Rb fragment substrate, 25 μM ATP
Please go through the items and note down their Ki.
Numbers only, in nM.

RECORD SMILES	Ki, nM
NS(=O)(=O)c1ccc(Nc2nc3[nH]nc(-c4ccccc4)c3s2)cc1	34
COc1ccc(Nc2nc3[nH]nc(-c4ccccc4)c3s2)cc1	1000

Which Ki is reported for this compound? `CN1CCN(c2ccc(Nc3nc4[nH]nc(-c5ccccc5)c4s3)cc2)CC1`
1600
